B1: E3 ubiquitin-protein ligase NEDD4-like, residues 539 to 589; numbered along this chain, Q96PU5 (parent)
chain: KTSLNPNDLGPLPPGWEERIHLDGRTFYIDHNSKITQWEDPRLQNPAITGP

variants of: B1; assay: abundance fitness (aPCA) (normalised: wild type 0, dead -1); higher = more abundant; growth selection in yeast, the domain comes from the species named; settings: Homo sapiens
measurementLabel: abundance fitness
Just the number, please.

variantName: T26F
abundance fitness: -0.287
//
variantName: R25T
abundance fitness: -0.068

Suppose we examine the variant T2E ; what abundance fitness value has been reported?
-0.1

Sample G15R — what was its abundance fitness?
-0.498

What abundance fitness value was documented for this variant, T2Q ?
-0.024

I have this variant here, A47C , and I need its recorded abundance fitness.
-0.049

Which value of abundance fitness has been reported for L22F in the records?
-0.23

If you can, please state the reported abundance fitness value of I48T .
0.051

Can you look up the measured abundance fitness of S33N for me?
-0.001

For H21W , what is its reported abundance fitness?
-0.051

Bench note: what abundance fitness did T26E show?
-0.403
